The reported measurements were obtained from patent US8158621B2.

Kindly supply the reported pIC50 values for the records listed here.
System: cultured human mast cells (CHMC)
assay_remarks: CHMC low cell density IgE activation: tryptase assay
Format: cell-based
experimental_conditions: low cell density; read-out: CHMC anti-IgE Tryptase
One number for each entry, as −log10 of the molar value.

Example entries begin here.
>>> observed_result("O=C1COc2ccc(Nc3nc(Nc4cccc(OCC(=O)NC5CCC5)c4)ncc3F)nc2N1 [Compound R945389]")
7.13
>>> observed_result("Cc1cc(C)cc(Nc2ncc(F)c(Nc3ccc4c(n3)NC(=O)CO4)n2)c1 [Compound R945432]")
7.31
>>> observed_result("CNC(=O)COc1cccc(Nc2ncc(F)c(Nc3cc(C)c(OC)c(Cl)c3)n2)c1 [Compound R926974]")
6.53
>>> observed_result("CC1(C)Oc2ccc(Nc3ncc(F)c(Nc4ccc(Cl)c(Cl)c4)n3)cc2NC1=O [Compound R927059]")
6.54
>>> observed_result("O=C(COc1cccc(Nc2ncc(F)c(NC3CCC3)n2)c1)NC1CC1 [Compound R945393]")
5.87

Now, please, on to the next molecule.
Data point: CNCC1Cc2cc(Nc3ncc(F)c(Nc4ccc(OC)c(Cl)c4)n3)ccc2O1 (racemic) [Compound R927045] ; pIC50 = 6.27
